From: patent US20210238298A1

Consider the following binders; for each one, report its Max IFN-γ.
assayed-target: CD137 on primary human CD8+ T cells (human, UniProt Q07011 24-255)
Sequence (Q07011 24-255 limits assumed): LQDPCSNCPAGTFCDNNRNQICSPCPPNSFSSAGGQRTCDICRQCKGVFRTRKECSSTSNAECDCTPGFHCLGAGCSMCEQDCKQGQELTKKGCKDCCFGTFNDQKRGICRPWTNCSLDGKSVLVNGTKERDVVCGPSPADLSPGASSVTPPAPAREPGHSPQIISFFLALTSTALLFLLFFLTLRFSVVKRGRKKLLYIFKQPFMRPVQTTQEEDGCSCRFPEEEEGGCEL
measurement-notes: cell-based or functional assay
Report as a plain number; the unit pg/mL is understood.

Record anti-CD137 antibody 1618/1619 (antibody, IgG1, V domains shown, Produced as IgG; also called 1618-bio) VH: EVQLLESGGGLVQPGGSLRLSCAASGFTFSYGSMYWVRQAPGKGLEWVSSISSGSGSTYYADSVKGRFTISRDNSKNTLYLQMNSLRAEDTAVYYCARSSYYGSYYSIDYWGQGTLVTVSS VL: DIQMTQSPSSLSASVGDRVTITCRASQSISSYLNWYQQKPGKAPKLLIYAASSLQSGVPSRFSGSGSGTDFTLTISSLQPEDFATYYCQQYYDNLPTFGQGTKLEIK , field Max IFN-γ: 111000

Record anti-CD137 antibody 1626/1627 (antibody, IgG1, V domains shown, Produced as IgG; also called 1626-bio) VH: EVQLLESGGGLVQPGGSLRLSCAASGFTFGGYSMYWVRQAPGKGLEWVSSIGGYYYSTYYADSVKGRFTISRDNSKNTLYLQMNSLRAEDTAVYYCARSYYGSIDYWGQGTLVTVSS VL: DIQMTQSPSSLSASVGDRVTITCRASQSISSYLNWYQQKPGKAPKLLIYAASSLQSGVPSRFSGSGSGTDFTLTISSLQPEDFATYYCQQGTGYGPLTFGQGTKLEIK , field Max IFN-γ: 32200

Record anti-CD137 antibody 1620/1621 (antibody, IgG1, V domains shown, Produced as IgG) VH: EVQLLESGGGLVQPGGSLRLSCAASGFTFSGYYMYWVRQAPGKGLEWVSGISSSGSYTYYADSVKGRFTISRDNSKNTLYLQMNSLRAEDTAVYYCARSVGPYFDYWGQGTLVTVSS VL: DIQMTQSPSSLSASVGDRVTITCRASQSISSYLNWYQQKPGKAPKLLIYAASSLQSGVPSRFSGSGSGTDFTLTISSLQPEDFATYYCQQGVGPYTFGQGTKLEIK , field Max IFN-γ: 123000
